Data origin, for the record: the kinase profiling compilation of Christmann-Franck et al. (2016)

Study target: MAPK10 (human)
Experimental details: KINOMEscan competition binding
Assay context: compound 10.0 µM

Smiles string | kinase still bound, per cent of control [%]
COCC(=O)NC/C=C/c1ccc2ncnc(Nc3ccc(Oc4ccc(C)nc4)c(C)c3)c2c1 | 68
NC(=O)Nc1cc(-c2cccc(F)c2)sc1C(=O)N[C@@H]1CCCNC1 | 63
O=c1cc(N2CCOCC2)oc2c(-c3cccc4c3sc3ccccc34)cccc12 | 100
CCN1CCN(C(=O)Cc2ccc(Nc3ncc(F)c(Nc4ccc(C(=O)Nc5ccccc5Cl)cc4)n3)cc2)CC1 | 0.8
CNC(=O)c1cc(Oc2ccc(NC(=O)Nc3ccc(Cl)c(C(F)(F)F)c3)cc2)ccn1 | 100
CCN(CC)CCCCNc1ncc2cc(-c3cc(OC)cc(OC)c3)c(NC(=O)NC(C)(C)C)nc2n1 | 100
COc1cc(N2CCN(C)CC2)ccc1Nc1ncc2c(n1)N(C)c1ccccc1C(=O)N2C | 100
COc1ccc(N(C(=O)Oc2c(C)cccc2C)c2ccnc(Nc3ccc(N4CCN(C)CC4)cc3)n2)c(OC)c1 | 37
C=CC(=O)Nc1ccc(CN(C(=O)Nc2c(Cl)c(OC)cc(OC)c2Cl)c2cc(Nc3ccc(N4CCN(C)CC4)cc3)ncn2)cc1 | 100
